system: human gastric cancer cell MKN-45; test: In vitro anti-tumor cell activity (MTT), MKN-45; type: cell-based; details: MKN-45 cells, MTT, 72 h, Bliss method
PROPERTY_MEASURED: MKN-45 IC50 (µg/mL)
Could you give me the number in µg/mL? Just the number is fine.

C=CCn1c(=O)c(C(=O)Nc2ccc(Oc3ccnc4cc(OCCCN5CCOCC5)c(OC)cc34)c(F)c2)nn(-c2ccc(Br)cc2)c1=O ... 0.19
C=CCn1c(=O)c(C(=O)Nc2ccc(Oc3ccnc4cc(OCCCN5CCCC5)c(OC)cc34)c(F)c2)nn(-c2ccc(Cl)cc2)c1=O ... 0.62
COc1cc2c(Oc3ccc(NC(=O)c4nn(-c5ccc(F)c(F)c5)c(=O)n(C)c4=O)cc3F)ccnc2cc1OCCCN1CCOCC1 ... 0.0008
COc1cc2c(Oc3ccc(NC(=O)c4nn(-c5ccc(Cl)cc5)c(=O)n(C)c4=O)cc3F)ccnc2cc1OCCCN1CCCCC1 ... 0.011
COc1cc2c(Oc3ccc(NC(=O)c4nn(-c5ccccc5)c(=O)n(C)c4=O)cc3F)ccnc2cc1OCCCN1CCN(C)CC1 ... 0.12

Next molecule, please.
In: I have this molecule here, `COc1cc2c(Oc3ccc(NC(=O)c4nn(-c5ccc(Br)cc5)c(=O)n(C)c4=O)cc3F)ccnc2cc1OCCCN1CCCCC1` , and I need its recorded MKN-45 IC50.
Out: 0.033

Cited source: patent US8993566B2
